Test system: U937 human histiocytic leukemia cell line
Assay: Screening for inhibition of TSQ induced necroptosis, 96 well plate format
Assay type: cell-based
Conditions: U-937, 48 h, read-out: Cell based assay Average
pIC50: −log10 of the molar value.
Measurement kind: pIC50

NS(=O)(=O)c1cccc(Nc2nccc(N(c3ccc(NC(=O)Nc4ccc(OC(F)(F)F)cc4)cc3)C3CC3)n2)c1 [Compound 24] :: 6.75
CCN(c1ccc(NC(=O)Nc2ccc(OC(F)(F)F)cc2)cc1)c1ccnc(Nc2cccc(S(N)(=O)=O)c2)n1 [Compound 26] :: 7.03
CN(c1ccc(NC(=O)Nc2ccc(OC(F)(F)F)cc2)cc1)c1ccnc(Nc2cccc(S(N)(=O)=O)c2)n1 [Compound 1] :: 7.16
CN(c1cccc(NC(=O)Nc2ccc(OC(F)(F)F)cc2)c1)c1ccnc(Nc2cccc(S(N)(=O)=O)c2)n1 [Compound 14] :: 6.47
